protocol: Canine pharmacokinetics after oral and i.v. administration
Type: in vivo, beagle dogs
conditionsUsed: beagle, dog, plasma; fasted dogs, IV 3 mg/kg, captisol pH 5.1
quantityKind: AUC(0-inf) (ng·h/mL)
Give just the number in ng·h/mL; leave the unit off.

Noted for Cc1cc(CN2CCC(F)(C(=O)N3CCC(n4c(-c5ccccn5)nc5cccnc54)CC3)CC2)cc(N)n1 [Compound of Formula I] : its AUC(0-inf) reads 32800

* * *

protocol: Oral tolerance in dogs with plasma level analysis
Format: in vivo, beagle dogs
conditionsUsed: female, beagle, dog, plasma, po, 5 mg/kg, female dog, 5 mg/kg oral daily, end of study, individual animal
quantityKind: concentration at 7 day (ng/mL)
Express it in ng/mL; write the number only.

Recorded concentration at 7 day (molecule Cc1cc(CN2CCC(F)(C(=O)N3CCC(n4c(-c5ccccn5)nc5cccnc54)CC3)CC2)cc(N)n1 [Compound of Formula I] ): 540
